- Experiment Notes: NCI Yeast Anticancer Drug Screen. Data for the mec2-1 strain (AID 157)
- Settings: S. cerevisiae mec2-1 strain, at 50.0 µM (retest, dose inferred, filed as 5.0)
The panel holds about 79,000 compounds, 15% with a hit somewhere; the sample as a whole holds those more often. Calls of active or inactive are those of the source. Rule as the data show it: active = growth inhibition above about 70%; inactive = the rest.
Please state which outcome applies, choosing from active, inactive

Q) Identify the outcome logged in this assay for the molecule shown: C/C(=N\NC(=S)Nc1ccc(Cl)cc1)c1nc2ncccc2[nH]1
A) active

Q) Repeat with CC(/C=C/c1cccs1)=N\NC(=S)NCC(C)C
A) active

Q) Repeat with CN(C)c1ccc(-c2c(C#N)c(-c3ccccc3)n(NS(=O)(=O)c3ccccc3)c(=O)c2C#N)cc1
A) inactive

Q) Repeat with CCCCCCCSCC1C(=O)C23CC1CCC2C12COC(O)C1C(C)(C)C(O)CC2OC3=O (stereo unspecified)
A) active

Q) Repeat with Cc1cc(Cl)ccc1NC(=O)CC1SC(=NC(=O)c2ccccc2Cl)NC1=O (stereo unspecified)
A) active

Q) Repeat with CC(C)OC(=O)C1C=CCc2c(O)ccc(O)c21 (stereo unspecified)
A) inactive

Q) Repeat with CN=C(N)N/N=C(\C)c1ccc2c(ccc3ccccc32)c1
A) active

Q) Repeat with O=C(c1ccccc1)c1ccc(Cl)cc1
A) inactive

Q) Repeat with C#CC(CC)(CC)N=Cc1cc(Cl)cc(Cl)c1O
A) active

Q) Repeat with C=C1C(=O)O[C@@H]2C[C@@]3(C)CCC[C@H](C)C3=C[C@H]12 (tested in a mixture with another compound)
A) active

Q) Repeat with OCCN1CCN(CCCN2c3cc(Cl)ccc3Sc3ccsc32)CC1
A) active

====

- Experiment Notes: NCI Yeast Anticancer Drug Screen. Data for the rad50 strain (AID 155);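 also: 0% = growth of vehicle-only cultures of the same strain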
- Settings: S. cerevisiae rad50 strain growth inhibition; at 50.0 µM; active compounds read high
Compounds without any hit were thinned out: in the full panel of roughly 79,000, 15% have a hit.
Can you tell me growth inhibition for the items I'm about to list?
Write the number in % without appending the unit.

Q) Quick one: growth inhibition for O=C1CSC(c2c[nH]c3ccccc23)N1c1cccc(Cl)c1 (stereo not drawn) ?
A) 85.8

Q) Repeat with O=C(/C=C/c1ccccc1Cl)c1ccc(F)cc1
A) 54.2

Q) Repeat with CCN(CC)CCNc1ccc(OC)c2cccnc12
A) 99.3

Q) Repeat with COc1c(O)cc2c(c1O)C(=O)C1=C(CCCC1)C2=O
A) 47.1

Q) Repeat with N#COc1ccc(Oc2ccc(OC#N)cc2)cc1
A) -12.9

Q) Repeat with C/C(C=C(C#N)C#N)=C\c1ccc([N+](=O)[O-])cc1
A) 78.2

Q) Repeat with Fc1ccccc1CN1COc2c(cc(Cl)c3cccnc23)C1
A) 99

Q) Repeat with C=CCNCCC1CCCCCC1
A) 96.6

Q) Repeat with CCOc1ccc2c(c1)n([O-])c1ccccc1[n+]2=O
A) 56

Q) Repeat with N#CC(NNC(=O)c1ccccc1O)c1c(O)ccc2ccccc12 (stereo not drawn)
A) 74.3

Q) Repeat with S=c1sc2ccccc2n1C=Nc1ccccc1
A) 98.9

Q) Repeat with CN(C)C(=S)N/N=C/c1ccccn1
A) 98.7

Q) Repeat with O=C1COCC(=O)OCCOCCSCCOCCO1
A) -4.6

====

- Experiment Notes: NCI Yeast Anticancer Drug Screen. Data for the bub3 strain (AID 167)
- Settings: S. cerevisiae bub3 mutant strain, at 50.0 µM (retest, dose inferred, filed as 5.0), active compounds read high
Compounds without any hit were thinned out: in the full panel of roughly 79,000, 15% have a hit. Activity calls are given as the source filed them. Rule as the data show it: active = growth inhibition above about 70%; inactive = the rest.
Measurement Kind: growth inhibition

Q) Quick one: growth inhibition for Oc1ccc(C(=C(Br)c2ccccc2)c2ccc(O)cc2)cc1 ?
A) 99% (active)

Q) Repeat with CC1=CCC[C@@H]2C1(C)CCC(C)[C@@]2(C)CC1=CC(=O)C=CC1=O (some centres undefined)
A) 93% (active)

Q) Repeat with Cc1cc(NC(=S)SCc2ccc(F)cc2)ccc1Br
A) 100% (active)

Q) Repeat with S=c1sc2ccccc2n1C=Nc1ccccc1
A) 96% (active)

Q) Repeat with Cn1cnc([N+](=O)[O-])c1Sc1nnnn1-c1ccccc1
A) 75% (active)

Q) Repeat with CCOC(CCCl)OCC
A) -3% (inactive)

Q) Repeat with C=CCN1/C(=C/C=C\c2sc3ccccc3[n+]2CC=C)Sc2ccccc21
A) 99% (active)

Q) Repeat with S=C(CSc1ccccc1)Nc1cccc2ccccc12
A) 81% (active)

Q) Repeat with C=COCCN1CCN(CCCN2c3ccccc3Sc3ccc(C(F)(F)F)cc32)CC1
A) 99% (active)

Q) Repeat with CN1c2ccccc2Sc2c1n[nH]c2-c1ccccc1
A) 95% (active)

Q) Repeat with CCOc1ccc2c(c1)CCC1C2CCC2(C)CC(O)CC12 (centres undefined)
A) -3% (inactive)

Q) Repeat with O=[N+]([O-])c1ccc(-c2ccc(-c3csc(Nc4ccccc4)n3)o2)cc1
A) 98% (active)

Q) Repeat with COc1ccc(Br)c2c1CC(C(=O)O)CC2 (centres undefined)
A) 13% (inactive)

Q) Repeat with CC(=O)SC(SC(C)=O)SC(C)=O
A) 99% (active)

Q) Repeat with CCCOC(=O)C(S)C(S)C(=O)OCCC (centres undefined)
A) 94% (active)

Q) Repeat with C/C(=N\NS(=O)(=O)c1ccc(C)cc1)c1cc2ccccc2n1C
A) 93% (active)

Q) Repeat with Nc1nnc(CCC(=O)Nc2ccccc2Cl)o1
A) 2% (inactive)

Q) Repeat with CN(C)CC/C(=N\Nc1ccc(Cl)cc1Cl)c1ccccc1
A) 100% (active)

Q) Repeat with COc1cccc2c1C(=O)c1c(O)c3c(c(O)c1C2=O)CC(O)(C(=O)CO)CC3OC1CC(N)C(I)C(C)O1 (centres undefined)
A) 98% (active)

Q) Repeat with CC1([N+](=O)[O-])C(=O)C2(N3CCCCC3)CCCC2C1c1ccccc1 (centres undefined)
A) 13% (inactive)

Q) Repeat with Oc1ccc(O)c(C2CCCCC2)c1
A) 99% (active)

Q) Repeat with O=C(Nc1ccc(Cl)cc1)c1cccc([N+](=O)[O-])c1O
A) 10% (inactive)

Q) Repeat with Cc1c2cnccc2c(C)c2c1c1ccccc1n2Cc1ccccc1
A) 93% (active)

Q) Repeat with Cc1ccc2nc(CC(=O)c3cccnc3)c(CC(=O)c3cccnc3)nc2c1
A) 93% (active)

====

- Experiment Notes: NCI Yeast Anticancer Drug Screen. Data for the mlh1 rad18 strain (AID 175)
- Settings: S. cerevisiae mlh1 rad18 strain growth inhibition; at 50.0 µM
About 79,000 compounds went through this panel and 15% of them were active in at least one assay; those are over-represented in the sample as a whole. Activity calls are given as the source filed them. Rule as the data show it: active = growth inhibition above about 70%; inactive = the rest.
Please state which outcome applies, choosing from class 1 (active), class 0 (inactive)

Q) Identify the outcome logged in this assay for the compound shown: Cc1cc(C)cc([C@H](C)N=Cc2cc(Br)ccc2O)c1
A) class 1

Q) Repeat with Clc1cccc2c(-c3ccccc3)c3cccc(Cl)c3cc12
A) class 1

Q) Repeat with O=Cc1c(O)ccc2ccccc12
A) class 1

Q) Repeat with CC(=O)N(N)c1ccccc1
A) class 1

Q) Repeat with CCOC(=O)NN(C(=O)OCC)c1ccc(N=Nc2ccc(OC)cc2)n1C
A) class 0

Q) Repeat with CCN(CC)CC(O)c1ccc(/C=C/c2ccc(Cl)cc2)cc1 (centres undefined)
A) class 1

Q) Repeat with CC(=O)OC[C@@]1(C)[C@@H]2CC[C@]3(C)[C@H](C(=O)C=C4[C@@H]5CC(C)(C)CC[C@]5(C(=O)O)CC[C@]43C)[C@@]2(C)CC[C@@H]1OC(C)=O
A) class 1

Q) Repeat with N#CC1(C#N)C2C=CC(C3CCC=C32)C1(C#N)C#N (centres undefined)
A) class 0

Q) Repeat with CC(=O)SC(SC(C)=O)SC(C)=O
A) class 1

Q) Repeat with NC(=O)Nc1cc(=O)[nH]c(=S)[nH]1
A) class 0

Q) Repeat with CCS(=O)(=O)OC(C)CCl (centres undefined)
A) class 0

Q) Repeat with O=C(NNc1ccccc1)C(O)C(=O)C(O)C(O)C(O)CO (centres undefined)
A) class 1

Q) Repeat with CC1CCN(CCOC(=O)C(c2ccccc2)C2C=CCCC2)C1C (centres undefined)
A) class 1

Q) Repeat with COc1ccc(/C(Cl)=C(\c2ccc(OCCN(C)C)cc2)c2ccc(OC(=O)C(C)(C)C)cc2)cc1
A) class 1

Q) Repeat with COc1ccc(C(C)(C)c2cc3c(cc2OCCO)OCO3)cc1
A) class 1

Q) Repeat with O=C(NC1=Nc2c(ncn2COCCO)S(=O)(=O)[N-]1)c1ccccc1.[Ag+]
A) class 1

Q) Repeat with Cc1cc(N2C(=O)CCSC2=S)ccc1Cl
A) class 1

Q) Repeat with CCCCCCCCCCCCCCCCNCCCN(C)CCCN
A) class 1

Q) Repeat with CC(=C/c1ccccc1)/C=C1/NC(=S)N(/C=C2\C(=O)Oc3ccccc3C2=O)C1=O
A) class 1

Q) Repeat with Oc1ccc(Cl)cc1Cc1cc(Cl)cc(Cc2cc(Cl)ccc2O)c1O
A) class 1

Q) Repeat with O=[N+]([O-])c1ccc(C(Br)(Br)c2ccc([N+](=O)[O-])cc2)cc1
A) class 1

Q) Repeat with Cn1c(CCC2(C)Cc3ccccc3C(=O)O2)cc2ccccc2c1=O (centres undefined)
A) class 0

Q) Repeat with Cc1cc(=O)c2c(ccc3cc4ccccc4cc32)[nH]1
A) class 0

Q) Repeat with Cc1cc(Br)c(NC(=O)CBr)cc1C
A) class 1
